We begin with a simple list: items and their reported Excess HSA synergy score.
- Test system: PEO-1
- Assay summary: Excess HSA synergy score (sum over dose matrix of excess over highest single agent) (score (summed % response)); higher = less synergy / more antagonism (negative = synergy)
- Test conditions: 72 h; read-out: viability/apoptosis luminescence (CellTiter-Glo or Caspase3-Glo / not stated per table); matrix design: 6x6, 5-fold dilutions (primary screen)
Whole data set: some 1,500 compounds, median “Excess HSA synergy score (sum over dose matrix of excess over highest single agent)” near 43, cut for the lowest 2% near -900. The list comes from a sample in which the lowest values are over-represented; it also holds close analogues and randomly drawn compounds.
Returns: the value as a bare number; no unit string appended.

Examples with their reported Excess HSA synergy score follow.
CCc1cccc(CC)c1NC(=O)N1Cc2[nH]nc(NC(=O)c3ccc(N4CCN(C)CC4)cc3)c2C1 + CC[C@H](NC(=O)[C@H](C)NC)C(=O)N1C[C@@H](O)C[C@H]1Cc1c(-c2[nH]c3cc(F)ccc3c2C[C@@H]2C[C@H](O)CN2C(=O)[C@H](CC)NC(=O)[C@H](C)NC)[nH]c2cc(F)ccc12 | -207
COc1ccc(-c2cc3nccn3c(Nc3ncccc3C(N)=O)n2)cc1OC + CC[C@H](NC(=O)[C@H](C)NC)C(=O)N1C[C@@H](O)C[C@H]1Cc1c(-c2[nH]c3cc(F)ccc3c2C[C@@H]2C[C@H](O)CN2C(=O)[C@H](CC)NC(=O)[C@H](C)NC)[nH]c2cc(F)ccc12 | 38

# get_value(readout= Excess HSA synergy score, system= PEO-1) for Nc1ccc(C(=O)Nc2cccc(-c3nc(N4CCOCC4)c4oc5ncccc5c4n3)c2)cn1 + CC[C@H](NC(=O)[C@H](C)NC)C(=O)N1C[C@@H](O)C[C@H]1Cc1c(-c2[nH]c3cc(F)ccc3c2C[C@@H]2C[C@H](O)CN2C(=O)[C@H](CC)NC(=O)[C@H](C)NC)[nH]c2cc(F)ccc12
-134

Consider next the molecule Cc1c[nH]c(/C=C2\C(=O)Nc3ccccc32)c1CCC(=O)O + CC[C@H](NC(=O)[C@H](C)NC)C(=O)N1C[C@@H](O)C[C@H]1Cc1c(-c2[nH]c3cc(F)ccc3c2C[C@@H]2C[C@H](O)CN2C(=O)[C@H](CC)NC(=O)[C@H](C)NC)[nH]c2cc(F)ccc12 in the same way.
54.2

Consider next the molecule NC[C@H]1O[C@H](O[C@H]2[C@H](O)[C@@H](O[C@H]3O[C@H](CO)[C@@H](O)[C@H](N)[C@H]3O)[C@H](N)C[C@@H]2N)[C@H](O)[C@@H](O)[C@@H]1O [Kanamycin] + CC[C@H](NC(=O)[C@H](C)NC)C(=O)N1C[C@@H](O)C[C@H]1Cc1c(-c2[nH]c3cc(F)ccc3c2C[C@@H]2C[C@H](O)CN2C(=O)[C@H](CC)NC(=O)[C@H](C)NC)[nH]c2cc(F)ccc12 in the same way.
-24.6

Consider next the molecule NC1(c2ccc(-c3nc4ccn5c(=O)[nH]nc5c4cc3-c3ccccc3)cc2)CCC1 + CC[C@H](NC(=O)[C@H](C)NC)C(=O)N1C[C@@H](O)C[C@H]1Cc1c(-c2[nH]c3cc(F)ccc3c2C[C@@H]2C[C@H](O)CN2C(=O)[C@H](CC)NC(=O)[C@H](C)NC)[nH]c2cc(F)ccc12 in the same way.
208

Consider next the molecule c1ccc(CNc2nc(NCc3ccccc3)c3ccccc3n2)cc1 + CC[C@H](NC(=O)[C@H](C)NC)C(=O)N1C[C@@H](O)C[C@H]1Cc1c(-c2[nH]c3cc(F)ccc3c2C[C@@H]2C[C@H](O)CN2C(=O)[C@H](CC)NC(=O)[C@H](C)NC)[nH]c2cc(F)ccc12 in the same way.
-180
